- assay-comment: Kidney drug level after subcutaneous dose in mouse
- Assay type: in vivo
- assay-context: mouse, in vivo
Where a SMILES comes first, the peptide text is derived from it. Bridges are numbered along the chain shown (N, C = ends). [ ]: non-standard residue; d: D form. The star is where a group is joined. X24 = NCC[C@@H](C(=O)*)c1ccc(Cl)cc1; X25 = NCC[C@@H](C(=O)*)c1cccc(Cl)c1; X4 = NC[C@@H](CC(=O)*)c1ccc(Cl)cc1; X5 = NC[C@H](CC(=O)*)c1ccc(Cl)cc1; Dab = NCC[C@H](N)C(=O)O; Dap = NC[C@H](N)C(=O)O
Could you mark each record y if its 4 hr kidney level/rel. cytotoxicity falls strictly under 50, and n if it equals or exceeds it?

molecule: CC(C)C[C@@H]1NC(=O)[C@@H](Cc2ccccc2)NC(=O)[C@H](CCN)NC(=O)[C@@H](NC(=O)[C@H](CN)NC(=O)[C@@H](NC(=O)C[C@@H](CN)c2ccc(Cl)cc2)[C@@H](C)O)CCNC(=O)[C@H]([C@@H](C)O)NC(=O)[C@H](CCN)NC(=O)[C@H](CCN)NC1=O [Example 2] (X5-T[Dap][Dab][Dab][dF]L[Dab][Dab]T; lactam 3-C)
group-label: n

molecule: CC(C)C[C@@H]1NC(=O)[C@@H](Cc2ccccc2)NC(=O)[C@H](CCN)NC(=O)[C@@H](NC(=O)[C@H](CN)NC(=O)[C@@H](NC(=O)[C@H](CCN)c2ccc(Cl)cc2)[C@@H](C)O)CCNC(=O)[C@H]([C@@H](C)O)NC(=O)[C@H](CCN)NC(=O)[C@H](CCN)NC1=O [reference compound] (X24-T[Dap][Dab][Dab][dF]L[Dab][Dab]T; lactam 3-C)
group-label: n

molecule: CC(C)C[C@@H]1NC(=O)[C@@H](Cc2ccccc2)NC(=O)[C@H](CCN)NC(=O)[C@@H](NC(=O)[C@H](CN)NC(=O)[C@@H](NC(=O)[C@H](CCN)c2cccc(Cl)c2)[C@@H](C)O)CCNC(=O)[C@H]([C@@H](C)O)NC(=O)[C@H](CCN)NC(=O)[C@H](CCN)NC1=O [reference compound] (X25-T[Dap][Dab][Dab][dF]L[Dab][Dab]T; lactam 3-C)
group-label: n

molecule: CC(C)C[C@@H]1NC(=O)[C@@H](Cc2ccccc2)NC(=O)[C@H](CCN)NC(=O)[C@@H](NC(=O)[C@H](CN)NC(=O)[C@@H](NC(=O)C[C@H](CN)c2ccc(Cl)cc2)[C@@H](C)O)CCNC(=O)[C@H]([C@@H](C)O)NC(=O)[C@H](CCN)NC(=O)[C@H](CCN)NC1=O [Example 1] (X4-T[Dap][Dab][Dab][dF]L[Dab][Dab]T; lactam 3-C)
group-label: y
